# protocol: Inhibition of hemozoin formation in 0.5 M acetate buffer at pH 4.8 after 12 hrs by tube-based high-throughput assay
# Assay type: functional
assay_metric: pIC50
On this scale, pIC50 is minus log10 of a concentration expressed in M (mol/L).

compound: CCN(CC)CCCC(C)Nc1ccnc2cc(Cl)ccc12 (centres undefined) [CHLOROQUINE]
pIC50: 4.61
//
compound: OC(c1cc(C(F)(F)F)nc2c(C(F)(F)F)cccc12)C1CCCCN1 (centres undefined) [MEFLOQUINE]
pIC50: 4.33
//
compound: C=C[C@H]1CN2CC[C@H]1C[C@H]2[C@H](O)c1ccnc2ccc(OC)cc12 [QUININE]
pIC50: 4.19

Let us examine a further case.
*Q* Dear colleague, I am looking for the recorded pIC50 of the following compound: CCN(CC)Cc1cc(Nc2ccnc3cc(Cl)ccc23)ccc1O
*A* 4.82

---

# protocol: Inhibition of hemozoin formation in acetonitrile trophozoite extract by microtiter plate-based high-throughput assay
# Format: functional
assay_metric: IC50 (µM)
Numbers only here, please. The scale is µM.

Use these answered entries as a reference point.
compound: C=C[C@H]1CN2CC[C@H]1C[C@H]2[C@H](O)c1ccnc2ccc(OC)cc12
endpoint_unit: µM
IC50: 78
//
compound: CCN(CC)Cc1cc(Nc2ccnc3cc(Cl)ccc23)ccc1O
endpoint_unit: µM
IC50: 73

Let us examine a further case.
*Q* Dear colleague, I am looking for the recorded IC50 of the following compound: OC(c1cc(C(F)(F)F)nc2c(C(F)(F)F)cccc12)C1CCCCN1 (stereo not drawn)
*A* 140

---

# protocol: Inhibition of hemozoin formation in 12.9 M acetate buffer at pH 4.5 at 60 degC after 1 hr by microtiter-based high-throughput assay
# Format: functional
The compounds listed here are annotated with their IC50.
Numbers only here, please. The scale is nM.

compound: CCN(CC)Cc1cc(Nc2ccnc3cc(Cl)ccc23)ccc1O
assay_result: 1450
--
compound: C=C[C@H]1CN2CC[C@H]1C[C@H]2[C@H](O)c1ccnc2ccc(OC)cc12
assay_result: 3500
--
compound: CCN(CC)CCCC(C)Nc1ccnc2cc(Cl)ccc12 (centres undefined)
assay_result: 1910

*Q* Dear colleague, I am looking for the recorded IC50 of the following compound: OC(c1cc(C(F)(F)F)nc2c(C(F)(F)F)cccc12)C1CCCCN1 (centres undefined)
*A* 2900
